Molecular target: GlnR (Streptococcus pneumoniae D39) (UniProt A0A0H2ZRB1)
Sequence: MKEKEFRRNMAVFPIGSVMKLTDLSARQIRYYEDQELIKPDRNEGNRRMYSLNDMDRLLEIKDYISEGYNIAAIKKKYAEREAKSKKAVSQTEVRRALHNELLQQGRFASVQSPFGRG
Experiment: EMSA
Conditions: 5X FY buffer: 20 mM Tris-HCl pH 7.5, 30 mM KCl, 1 mM DTT, 1 mM EDTA, 10% glycerol; room temperature 20 min, 20 ul, ~30 ng DNA, 0.1-0.5 uM protein; 8%
parameterMeasured: Kd (nM)
Form entry: value (nM) — number only.

Readout Kd for CAGTTTGAAATAAAATATAGACTGTTTTAGAAAAGAAAGTGTAAAAATAGGGATTTTGCACTTGTTGAAATCGGTTACTTTATGGTATACTTGTC (double strand) [PpflB] , test system GlnR (Streptococcus pneumoniae D39) (UniProt A0A0H2ZRB1), was 310

----------
target: CcpA (Streptococcus pneumoniae D39) (UniProt A0A0H2ZQ65); assay: EMSA; details: 5X FY buffer: 20 mM Tris-HCl pH 7.5, 30 mM KCl, 1 mM DTT, 1 mM EDTA, 10% glycerol; room temperature 20 min, 20 ul, ~30 ng DNA, 0.1-0.5 uM protein; 8%
parameterMeasured: binding

seq	parameterMeasured	result
GTGAAAATTTCGTTTTCATATTTCTACTTATTCCATTCTATCACTAATTGTAAACACTTTCAAGTGTTTTTTGAAGATTGATTGAAAAAATTTCA (double strand) [PccpA]	binding	binds
GTTACCTTCCTTGAAAACGTTTTATAGTTTTATTATATCACGACTTGAAGGAAAAACAAGATTTTTGCCTATTTTTTAGAAAGCAATCTGTTTTTC (double strand) [PpflA]	binding	binds
ATGACAGAAGAAATCAAAAATCTGCAGGCACAGGATTATGATGCCAGTCAAATTCAAGTTTTAGAGGGCTTAGAGGCTGTTCGTATGCGTCCAGG (double strand) [gyrB]	binding	no binding
AAGTGCAAAATCCCTATTTTTACACTTTCTTTTCTAAAACAGTCTATATTTTATTTCAAACTGTATTATATTTTTGAAAAAAATAAAGTCCTTTT (double strand) [PpflB(cre1-)]	binding	no binding
